Entry source: patent US20240018119A1

Target: dopamine transporter (Homo sapiens)
Construct: expressed in transfected cells; host or cells: HEK-293
Sequence (Q01959 whole entry): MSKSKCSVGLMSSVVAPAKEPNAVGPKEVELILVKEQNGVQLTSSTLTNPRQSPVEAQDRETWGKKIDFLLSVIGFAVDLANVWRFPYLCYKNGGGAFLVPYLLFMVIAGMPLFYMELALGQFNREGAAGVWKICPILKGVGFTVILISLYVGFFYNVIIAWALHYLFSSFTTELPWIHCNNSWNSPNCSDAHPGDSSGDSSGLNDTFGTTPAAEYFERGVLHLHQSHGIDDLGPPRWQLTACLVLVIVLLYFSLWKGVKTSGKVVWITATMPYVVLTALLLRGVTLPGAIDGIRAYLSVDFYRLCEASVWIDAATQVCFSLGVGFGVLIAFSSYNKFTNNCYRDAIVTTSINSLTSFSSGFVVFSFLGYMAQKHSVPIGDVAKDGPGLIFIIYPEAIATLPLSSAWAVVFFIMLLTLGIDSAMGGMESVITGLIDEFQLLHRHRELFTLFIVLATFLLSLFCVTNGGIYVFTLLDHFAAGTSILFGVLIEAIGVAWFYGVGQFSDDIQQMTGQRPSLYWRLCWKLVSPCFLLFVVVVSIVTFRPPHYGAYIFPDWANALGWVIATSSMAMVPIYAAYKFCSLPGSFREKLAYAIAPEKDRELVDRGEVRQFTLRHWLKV
Assay: Dopamine reuptake inhibition in transporter-transfected HEK-293 cells ([3H]-DA)
Assay type: cell-based
Conditions: compound 1 μM; 20-30 nM [3H]-DA; relative to control without compound (100%), lower = more inhibition
For each of the compounds below, state its Triple reuptake inhibition (Ratio %) DAT.
Provide only the numeric value, understood in %.

## Input Provide measured Triple reuptake inhibition (Ratio %) DAT value, entry: O=C(NCCN1CCN(c2cccc(Cl)c2Cl)CC1)c1ccc(Cl)c(Cl)c1
## Output 106.09

## Input Provide measured Triple reuptake inhibition (Ratio %) DAT value, entry: O=C(NCCN1CCN(c2cccc(C(F)(F)F)c2)CC1)c1ccc(Cl)c(Cl)c1
## Output 103.97

## Input Provide measured Triple reuptake inhibition (Ratio %) DAT value, entry: O=C(NCCN1CCC(Cc2ccccc2)CC1)c1nc2cc(F)ccc2s1
## Output 68.95

## Input Provide measured Triple reuptake inhibition (Ratio %) DAT value, entry: O=C(NCCN1CCC(Cc2ccccc2)CC1)c1cc2c(Cl)cc(Cl)cc2[nH]1
## Output 40.9

## Input Provide measured Triple reuptake inhibition (Ratio %) DAT value, entry: O=C(NCCN1CCC(Cc2ccc(Cl)c(Cl)c2)CC1)c1ccc(Cl)c(Cl)c1
## Output 66.05

====

Target: serotonin transporter (Homo sapiens)
Construct: expressed in transfected cells; host or cells: HEK-293
Sequence (P31645 whole entry): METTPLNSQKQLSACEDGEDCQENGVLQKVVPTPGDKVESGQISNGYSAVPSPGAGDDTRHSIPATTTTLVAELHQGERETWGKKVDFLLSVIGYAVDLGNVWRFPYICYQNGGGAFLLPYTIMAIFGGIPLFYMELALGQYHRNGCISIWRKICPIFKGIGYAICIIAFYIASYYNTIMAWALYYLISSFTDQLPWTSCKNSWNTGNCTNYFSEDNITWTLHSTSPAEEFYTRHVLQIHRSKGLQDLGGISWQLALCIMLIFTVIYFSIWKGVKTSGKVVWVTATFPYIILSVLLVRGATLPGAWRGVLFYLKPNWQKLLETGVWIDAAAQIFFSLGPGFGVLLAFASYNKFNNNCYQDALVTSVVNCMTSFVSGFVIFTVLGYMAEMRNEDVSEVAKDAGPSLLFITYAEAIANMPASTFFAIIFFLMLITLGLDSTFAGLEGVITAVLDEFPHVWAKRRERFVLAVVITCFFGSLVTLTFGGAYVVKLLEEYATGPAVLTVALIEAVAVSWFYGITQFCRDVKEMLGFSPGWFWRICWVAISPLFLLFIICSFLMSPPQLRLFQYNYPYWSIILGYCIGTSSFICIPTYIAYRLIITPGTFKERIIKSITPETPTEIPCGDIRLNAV
Assay: Serotonin reuptake inhibition in transporter-transfected HEK-293 cells ([3H]-5-HT)
Format: cell-based
Conditions: compound 1 μM; [3H]-5-HT; relative to control without compound (100%), lower = more inhibition
Output schema: class label derived from Triple reuptake inhibition (Ratio %) SERT. Mapping: low band = under 80%, middle band = from 80% up to 90%, high band = 90% and over

## Input Sort Cc1c(C(=O)NCCN2CCC(Cc3ccccc3)CC2)[nH]c2ccccc12 into one of the categories.
## Output middle band

## Input Sort O=C(NCC(=O)N1CCC(Cc2ccccc2)CC1)c1cc2ccccc2[nH]1 into one of the categories.
## Output high band

## Input Sort O=C(NCCN1CCC(C(O)c2ccccc2)CC1)c1cc2ccccc2[nH]1 (stereo not drawn) into one of the categories.
## Output high band

## Input Sort O=C(NCCN1CCC(Cc2ccccc2)CC1)c1cc2cc(Br)ccc2[nH]1 into one of the categories.
## Output low band

## Input Sort O=C(NCCN1CCN(Cc2ccccc2)CC1)c1ccc2cc(Br)ccc2c1 into one of the categories.
## Output low band

## Input Sort O=C(NCCN1CCC(Cc2ccc(Cl)c(Cl)c2)CC1)c1cc2ccccc2[nH]1 into one of the categories.
## Output low band

## Input Sort O=C(NCCN1CCN(c2cccc(Cl)c2Cl)CC1)c1ccc2cc(Br)ccc2c1 into one of the categories.
## Output low band

## Input Sort CN(CCNC(=O)c1cc2ccccc2[nH]1)Cc1ccc2ccccc2c1 into one of the categories.
## Output middle band

====

Target: norepinephrine transporter (Homo sapiens, UniProt P23975)
Construct: expressed in transfected cells; host or cells: HEK-293
Sequence (P23975 whole entry, species assumed): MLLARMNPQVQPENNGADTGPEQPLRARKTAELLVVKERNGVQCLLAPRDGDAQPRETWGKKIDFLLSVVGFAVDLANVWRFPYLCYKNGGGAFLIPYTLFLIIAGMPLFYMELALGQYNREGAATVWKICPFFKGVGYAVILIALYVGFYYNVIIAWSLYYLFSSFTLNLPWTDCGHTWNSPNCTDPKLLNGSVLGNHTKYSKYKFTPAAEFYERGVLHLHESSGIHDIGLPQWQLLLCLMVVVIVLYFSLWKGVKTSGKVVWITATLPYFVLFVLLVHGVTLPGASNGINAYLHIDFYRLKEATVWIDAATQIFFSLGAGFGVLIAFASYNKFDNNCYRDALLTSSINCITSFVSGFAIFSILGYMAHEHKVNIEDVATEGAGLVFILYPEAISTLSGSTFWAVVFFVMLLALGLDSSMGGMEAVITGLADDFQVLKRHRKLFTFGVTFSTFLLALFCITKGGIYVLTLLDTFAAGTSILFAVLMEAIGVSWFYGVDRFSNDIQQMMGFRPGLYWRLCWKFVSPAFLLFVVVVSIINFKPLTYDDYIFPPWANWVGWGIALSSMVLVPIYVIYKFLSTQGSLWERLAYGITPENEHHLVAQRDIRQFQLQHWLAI
Test: Norepinephrine reuptake inhibition in transporter-transfected HEK-293 cells ([3H]-NE)
Assay type: cell-based
Conditions: compound 1 μM; [3H]-NE; relative to control without compound (100%), lower = more inhibition
Method: To evaluate the reuptake inhibitory effect on dopamine, the dopamine transporter cDNA was transfected using the HEK-293 cell line, and then sub-seeded in a 24 well plate the next day. […] After dissolving the resultant in 1% SDS (0.5 ml), the degree of binding of radioisotope-labeled dopamine to the transporter was measured. […]
Result type: Triple reuptake inhibition (Ratio %) NET
Provide only the numeric value, understood in %.

## Input Provide measured Triple reuptake inhibition (Ratio %) NET value, entry: CC(CN1CCC(Cc2ccccc2)CC1)NC(=O)c1cc2ccccc2[nH]1 (stereo not drawn)
## Output 56.98

## Input Provide measured Triple reuptake inhibition (Ratio %) NET value, entry: O=C(NCCN1CCC(Cc2ccccc2)CC1)[C@H]1Cc2ccccc2N1
## Output 82.39

## Input Provide measured Triple reuptake inhibition (Ratio %) NET value, entry: O=C(NCCN1CCN(CC2CCOCC2)CC1)c1cc2ccccc2[nH]1
## Output 97.94

## Input Provide measured Triple reuptake inhibition (Ratio %) NET value, entry: O=C(c1cc2ccccc2[nH]1)N1CCC(Cc2ccccc2)CC1
## Output 92.07

## Input Provide measured Triple reuptake inhibition (Ratio %) NET value, entry: O=C(NCCN1CCN(c2ccc(Cl)c(Cl)c2)CC1)c1cc2ccccc2[nH]1
## Output 107.75

## Input Provide measured Triple reuptake inhibition (Ratio %) NET value, entry: O=C(NCCN1CCN(c2cccc(C(F)(F)F)c2)CC1)c1cc2ccccc2[nH]1
## Output 97.95

## Input Provide measured Triple reuptake inhibition (Ratio %) NET value, entry: CCCCOc1ccc2[nH]c(C(=O)NCCN3CCC(Cc4ccccc4)CC3)cc2c1
## Output 92.60

## Input Provide measured Triple reuptake inhibition (Ratio %) NET value, entry: O=C(NCCN1CCN(c2cccc(C(F)(F)F)c2)CC1)c1ccc2cc(Br)ccc2c1
## Output 120.40

## Input Provide measured Triple reuptake inhibition (Ratio %) NET value, entry: O=C(CCC(=O)N1CCC(Cc2ccccc2)CC1)Nc1cc2ccccc2[nH]1
## Output 91.05

## Input Provide measured Triple reuptake inhibition (Ratio %) NET value, entry: O=C(NCCN1CCC(Cc2ccccc2)CC1)c1cc2cc(O)c(O)cc2[nH]1
## Output 48.43

## Input Provide measured Triple reuptake inhibition (Ratio %) NET value, entry: O=C(NCCN1CCC(Cc2ccccc2)CC1)c1c[nH]c2ccccc12
## Output 57.01

## Input Provide measured Triple reuptake inhibition (Ratio %) NET value, entry: CN(CCNC(=O)c1cc2ccccc2[nH]1)Cc1ccc2ccccc2c1
## Output 100.99

## Input Provide measured Triple reuptake inhibition (Ratio %) NET value, entry: COc1cc2cc(C(=O)NCCN3CCC(Cc4ccc(Cl)c(Cl)c4)CC3)[nH]c2cc1OC
## Output 9.75

## Input Provide measured Triple reuptake inhibition (Ratio %) NET value, entry: O=C(NCCN1CCC(Cc2ccccc2)CC1)c1nc2ccccc2s1
## Output 57.47

## Input Provide measured Triple reuptake inhibition (Ratio %) NET value, entry: O=C(NCCN1CCC(Cc2ccccc2)CC1)c1cc2cc(F)ccc2[nH]1
## Output 26.73

## Input Provide measured Triple reuptake inhibition (Ratio %) NET value, entry: O=C(NCCN1CCN(Cc2ccccc2)CC1)c1ccc(Cl)c(Cl)c1
## Output 72.94

## Input Provide measured Triple reuptake inhibition (Ratio %) NET value, entry: O=C(NCCN1CCC(Cc2ccccc2)CC1)c1cc2cc(OCc3ccccc3)ccc2[nH]1
## Output 110.55

## Input Provide measured Triple reuptake inhibition (Ratio %) NET value, entry: O=C(NCCN1CCC(Cc2ccccc2)CC1)c1nc2cc(F)ccc2s1
## Output 50.81

====

Target: norepinephrine transporter (Homo sapiens)
Construct: expressed in transfected cells; host or cells: HEK-293
Assay: Norepinephrine reuptake inhibition in transporter-transfected HEK-293 cells ([3H]-NE)
Assay type: cell-based
Result type: IC50 (µM)
Provide only the numeric value, understood in µM.

## Input Provide measured IC50 value, entry: O=C(CCN1CCC(Cc2ccccc2)CC1)Nc1cc2ccccc2[nH]1
## Output 0.496

====

Biological target: serotonin transporter (Homo sapiens)
Construct: expressed in transfected cells; host or cells: HEK-293
Assay: Serotonin reuptake inhibition in transporter-transfected HEK-293 cells ([3H]-5-HT)
Format: cell-based
Details: compound 1 μM; [3H]-5-HT; relative to control without compound (100%), lower = more inhibition
For each of the compounds below, state its Triple reuptake inhibition (Ratio %) SERT.
Provide only the numeric value, understood in %.

## Input Provide measured Triple reuptake inhibition (Ratio %) SERT value, entry: O=C(NC1CCC(Cc2ccccc2)CC1)c1cc2ccccc2[nH]1 (centres unmarked)
## Output 94.19

## Input Provide measured Triple reuptake inhibition (Ratio %) SERT value, entry: O=C(c1cc2ccccc2[nH]1)N1CCC(Cc2ccccc2)CC1
## Output 113.81

## Input Provide measured Triple reuptake inhibition (Ratio %) SERT value, entry: O=C(NCCN1CCCC(Cc2ccccc2)C1)c1cc2ccccc2[nH]1 (centres unmarked)
## Output 70.46

## Input Provide measured Triple reuptake inhibition (Ratio %) SERT value, entry: O=C(NCCNC(=O)c1cc2ccccc2[nH]1)c1ccc2ccccc2c1
## Output 91.05

## Input Provide measured Triple reuptake inhibition (Ratio %) SERT value, entry: NC(=O)c1ccc2[nH]c(C(=O)NCCN3CCC(Cc4ccccc4)CC3)cc2c1
## Output 41.20

====

Biological target: serotonin transporter (Homo sapiens)
Construct: expressed in transfected cells; host or cells: HEK-293
Assay: Serotonin reuptake inhibition in transporter-transfected HEK-293 cells ([3H]-5-HT)
Type: cell-based
Conditions: concentration at which Ratio % is 50%; 6 concentrations 1 nM to 1 μM; read-out: Triple reuptake inhibition (IC50, μM) SERT
Protocol: To evaluate the reuptake inhibitory effect on dopamine, the dopamine transporter cDNA was transfected using the HEK-293 cell line, and then sub-seeded in a 24 well plate the next day. […] After dissolving the resultant in 1% SDS (0.5 ml), the degree of binding of radioisotope-labeled dopamine to the transporter was measured. […]
Result type: IC50

## Input Provide measured IC50 value, entry: O=C(NCCN1CCC(Cc2ccccc2)CC1)c1cc2cc(O)c(O)cc2[nH]1
## Output 0.369 µM

## Input Provide measured IC50 value, entry: N#Cc1ccc2[nH]c(C(=O)NCCN3CCC(Cc4ccccc4)CC3)cc2c1
## Output 0.525 µM

## Input Provide measured IC50 value, entry: CCCCOc1ccc2cc(C(=O)NCCN3CCC(Cc4ccccc4)CC3)[nH]c2c1
## Output 0.68 µM

## Input Provide measured IC50 value, entry: O=C(NCCN1CCC(Cc2ccc(Cl)c(Cl)c2)CC1)c1cc2cc(F)ccc2[nH]1
## Output 0.331 µM

## Input Provide measured IC50 value, entry: O=C(NCCN1CCC(Cc2ccc(F)c(F)c2)CC1)c1ccc2cc(Br)ccc2c1
## Output 14 µM

## Input Provide measured IC50 value, entry: COc1ccc2[nH]c(C(=O)NCCN3CCC(Cc4ccccc4)CC3)nc2c1
## Output 0.198 µM

## Input Provide measured IC50 value, entry: COc1cc2cc(C(=O)NCCN3CCC(Cc4ccccc4)CC3)[nH]c2cc1OC
## Output 0.415 µM

## Input Provide measured IC50 value, entry: O=C(NCCN1CCC(Cc2ccccc2)CC1)c1cc2cc(O)ccc2[nH]1
## Output 0.265 µM

## Input Provide measured IC50 value, entry: O=C(NCCN1CCC(Cc2ccccc2)CC1)c1nc2ccccc2[nH]1
## Output 2.28 µM

## Input Provide measured IC50 value, entry: Cn1c(C(=O)NCCN2CCC(Cc3ccccc3)CC2)cc2ccccc21
## Output 3.41 µM

## Input Provide measured IC50 value, entry: O=C(NCCN1CCC(Cc2ccc(Cl)c(Cl)c2)CC1)c1cc2cc(O)c(O)cc2[nH]1
## Output 0.044 µM

## Input Provide measured IC50 value, entry: O=C(NCCN1CCN(Cc2ccc(Cl)c(Cl)c2)CC1)c1cc2ccccc2[nH]1
## Output > 10 µM

## Input Provide measured IC50 value, entry: O=C(NCCN1CCC(Cc2ccc(Cl)c(Cl)c2)CC1)c1ccc2cc(Br)ccc2c1
## Output 3.07 µM

## Input Provide measured IC50 value, entry: O=C(NCCN1CCN(c2ccc(Cl)c(Cl)c2)CC1)c1cc2ccccc2[nH]1
## Output > 10 µM

## Input Provide measured IC50 value, entry: O=C(NCCN1CCC(Cc2ccccc2)CC1)c1cc2cc(F)ccc2[nH]1
## Output 1.47 µM

## Input Provide measured IC50 value, entry: COc1cc2cc(C(=O)NCCN3CCC(Cc4ccc(Cl)c(Cl)c4)CC3)[nH]c2cc1OC
## Output 0.123 µM

## Input Provide measured IC50 value, entry: COc1ccc2[nH]c(C(=O)NCCN3CCC(Cc4ccccc4)CC3)cc2c1
## Output 1.33 µM

## Input Provide measured IC50 value, entry: O=C(NCCN1CCC(Cc2ccccc2)CC1)c1cc2cc(F)c(F)cc2[nH]1
## Output 2.04 µM
